Measured TGI MEL-28 accompanies every entry in the list below.
# System: SK-MEL-28
# PROTOCOL: SRB colorimetric assay of cell growth and viability, SK-MEL-28
# Assay type: cell-based, human
# REPORTED CONDITIONS: 48 hours exposure
OBSERVED PROPERTY: TGI MEL-28

[[record]]
compound = "C/C=C1\\NC(=O)[C@H](Cc2ccccc2)NC(=O)[C@@H](C(C)C)NC(=O)[C@@H]([C@@H](C)CC)NC(=O)[C@H](NC(=O)[C@H](NC(=O)[C@H](CCCN)NC(=O)[C@H]2CCCN2C(=O)[C@H](NC(=O)[C@@H](NC(=O)[C@@H](NC(=O)[C@H](NC(=O)Cc2cc(F)cc(F)c2)C(C)C)[C@@H](C)O)C(C)C)C(C)C)[C@@H](C)CC)[C@@H](C)OC(=O)[C@H](C(C)C)NC1=O [Compound 22, [3,5-dFPhAc^14]-KF]"
experimental_system = "SK-MEL-28"
recorded_measurement = "6.58E−06 Molar"

[[record]]
compound = "C/C=C1\\NC(=O)[C@H](Cc2ccccc2)NC(=O)[C@@H](C(C)C)NC(=O)[C@@H]([C@@H](C)CC)NC(=O)[C@H](NC(=O)[C@H](NC(=O)[C@H](CCCN)NC(=O)[C@H]2CCCN2C(=O)[C@H](NC(=O)[C@@H](NC(=O)[C@@H](NC(=O)[C@@H](CC2CCCCC2)NC(=O)CCCC(C)C)[C@@H](C)O)C(C)C)C(C)C)[C@@H](C)CC)[C@@H](C)OC(=O)[C@H](C(C)C)NC1=O [Compound 8, [D-Cha^13]-KF]"
experimental_system = "SK-MEL-28"
recorded_measurement = "2.42E−06 Molar"

[[record]]
compound = "C/C=C1\\NC(=O)[C@H](Cc2ccccc2)NC(=O)[C@@H](C(C)C)NC(=O)[C@@H]([C@@H](C)CC)NC(=O)[C@H](NC(=O)[C@H](NC(=O)[C@H](CCCCN)NC(=O)[C@H]2CCCN2C(=O)[C@H](NC(=O)[C@@H](NC(=O)[C@@H](NC(=O)[C@H](NC(=O)CC[C@@H](C)CC)C(C)C)[C@@H](C)O)C(C)C)C(C)C)[C@@H](C)CC)[C@@H](C)OC(=O)[C@H](C(C)C)NC1=O [Compound 30, [Lys^8, (4S)-MeHex^14]-KF]"
experimental_system = "SK-MEL-28"
recorded_measurement = "2.39E−06 Molar"

